Exercise: state measured IC50 for each of the compounds provided.
System: Vero
Assay: Concentration required to reduce Junin virus-inducted cytopathicity by 50% (Vero cells)
Type: functional, cell-based
Conditions: Chlorocebus sabaeus

Query string: Annotate the compound O=C(O)CC(SCCCOC[C@H]1O[C@@H](O[C@H]2[C@H](OCCCSC(CC(=O)O)C(=O)O)[C@@H](OCCCSC(CC(=O)O)C(=O)O)C(OCCCSC(CC(=O)O)C(=O)O)O[C@@H]2COCCCSC(CC(=O)O)C(=O)O)[C@H](OCCCSC(CC(=O)O)C(=O)O)[C@@H](OCCCSC(CC(=O)O)C(=O)O)[C@@H]1OCCCSC(CC(=O)O)C(=O)O)C(=O)O (some centres undefined) with its measured IC50.
Result string: > 22 µM

Query string: Annotate the compound O=S(=O)(O)CCSCCCOC[C@H]1O[C@@](COCCCSCCS(=O)(=O)O)(O[C@H]2O[C@H](COCCCSCCS(=O)(=O)O)[C@@H](OCCCSCCS(=O)(=O)O)[C@H](OCCCSCCS(=O)(=O)O)[C@H]2OCCCSCCS(=O)(=O)O)[C@@H](OCCCSCCS(=O)(=O)O)[C@@H]1OCCCSCCS(=O)(=O)O with its measured IC50.
Result string: > 25 µM

Query string: Annotate the compound O=C(O)CC(SCCCOC[C@H]1O[C@@H](O[C@H]2[C@H](OCCCSC(CC(=O)O)C(=O)O)[C@@H](OCCCSC(CC(=O)O)C(=O)O)[C@@H](OCCCSC(CC(=O)O)C(=O)O)O[C@@H]2COCCCSC(CC(=O)O)C(=O)O)[C@H](OCCCSC(CC(=O)O)C(=O)O)[C@@H](OCCCSC(CC(=O)O)C(=O)O)[C@@H]1OCCCSC(CC(=O)O)C(=O)O)C(=O)O (some centres undefined) with its measured IC50.
Result string: > 22 µM

Query string: Annotate the compound O=C(O)CC(SCCCOC[C@H]1O[C@@H](OCCCSC(CC(=O)O)C(=O)O)[C@H](OCCCSC(CC(=O)O)C(=O)O)[C@@H](OCCCSC(CC(=O)O)C(=O)O)[C@@H]1OCCCSC(CC(=O)O)C(=O)O)C(=O)O (some centres undefined) with its measured IC50.
Result string: > 37 µM

====

System: E6SM
Experiment: Concentration required to reduce herpes simplex virus-1TK (F) inducted cytopathicity by 50% (E6SM cells)
Assay type: functional, cell-based
Settings: Homo sapiens
pIC50: −log10 of the molar value.
Exercise: state measured pIC50 for each of the compounds provided.

Query string: Annotate the compound O=C(O)CCSCCCOC[C@H]1O[C@@](COCCCSCCC(=O)O)(O[C@H]2O[C@H](COCCCSCCC(=O)O)[C@@H](OCCCSCCC(=O)O)[C@H](OCCCSCCC(=O)O)[C@H]2OCCCSCCC(=O)O)[C@@H](OCCCSCCC(=O)O)[C@@H]1OCCCSCCC(=O)O with its measured pIC50.
Result string: < 3.63

Query string: Annotate the compound O=S(=O)(O)CCSCCCOC[C@H]1O[C@@](COCCCSCCS(=O)(=O)O)(O[C@H]2O[C@H](COCCCSCCS(=O)(=O)O)[C@@H](OCCCSCCS(=O)(=O)O)[C@H](OCCCSCCS(=O)(=O)O)[C@H]2OCCCSCCS(=O)(=O)O)[C@@H](OCCCSCCS(=O)(=O)O)[C@@H]1OCCCSCCS(=O)(=O)O with its measured pIC50.
Result string: < 4.00

Query string: Annotate the compound O=S(=O)(O)CCSCCCOC[C@H]1O[C@@H](OCCCSCCS(=O)(=O)O)[C@H](OCCCSCCS(=O)(=O)O)[C@@H](OCCCSCCS(=O)(=O)O)[C@@H]1OCCCSCCS(=O)(=O)O with its measured pIC50.
Result string: < 3.48

Query string: Annotate the compound O=C(O)CC(SCCCOC[C@H]1O[C@@H](OCCCSC(CC(=O)O)C(=O)O)[C@H](OCCCSC(CC(=O)O)C(=O)O)[C@@H](OCCCSC(CC(=O)O)C(=O)O)[C@@H]1OCCCSC(CC(=O)O)C(=O)O)C(=O)O (stereo not given in full) with its measured pIC50.
Result string: < 3.53

Query string: Annotate the compound O=C(O)CC(SCCCOC[C@H]1O[C@@](COCCCSC(CC(=O)O)C(=O)O)(O[C@H]2O[C@H](COCCCSC(CC(=O)O)C(=O)O)[C@@H](OCCCSC(CC(=O)O)C(=O)O)[C@H](OCCCSC(CC(=O)O)C(=O)O)[C@H]2OCCCSC(CC(=O)O)C(=O)O)[C@@H](OCCCSC(CC(=O)O)C(=O)O)[C@@H]1OCCCSC(CC(=O)O)C(=O)O)C(=O)O (stereo not given in full) with its measured pIC50.
Result string: < 3.74
